Molecular target: T1, Lsb4, P32793
T1 sequence (P32793 402-468, looked up): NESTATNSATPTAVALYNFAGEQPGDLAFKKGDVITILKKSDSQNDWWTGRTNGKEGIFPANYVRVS
Assay: SPOT array
Conditions: median of control spots 397
experimental_readout: SPOT intensity
Number, no unit, nothing else.

Incoming: Consider the binder AAHKTKPSIPPKKVE and give its measured SPOT intensity.
Outgoing: 0

Incoming: Would you mind doing KMSRSPPRPPSLKII as well?
Outgoing: 88

Incoming: Would you mind doing TKRKRPARLIFYDSK as well?
Outgoing: 7

Incoming: Would you mind doing SAPDIPPRSPNRNAH as well?
Outgoing: 145

Incoming: Would you mind doing RRTRLRPPTPLSQLL as well?
Outgoing: 1

Incoming: Would you mind doing APPLPPTAPPPPSLP as well?
Outgoing: 0

Incoming: Would you mind doing VRTRRRPPPPPIPST as well?
Outgoing: 39
